Recorded pIC50 values for a group of molecules are listed next.
- measured on: UniProt O94804
- Sequence (O94804 whole entry, looked up): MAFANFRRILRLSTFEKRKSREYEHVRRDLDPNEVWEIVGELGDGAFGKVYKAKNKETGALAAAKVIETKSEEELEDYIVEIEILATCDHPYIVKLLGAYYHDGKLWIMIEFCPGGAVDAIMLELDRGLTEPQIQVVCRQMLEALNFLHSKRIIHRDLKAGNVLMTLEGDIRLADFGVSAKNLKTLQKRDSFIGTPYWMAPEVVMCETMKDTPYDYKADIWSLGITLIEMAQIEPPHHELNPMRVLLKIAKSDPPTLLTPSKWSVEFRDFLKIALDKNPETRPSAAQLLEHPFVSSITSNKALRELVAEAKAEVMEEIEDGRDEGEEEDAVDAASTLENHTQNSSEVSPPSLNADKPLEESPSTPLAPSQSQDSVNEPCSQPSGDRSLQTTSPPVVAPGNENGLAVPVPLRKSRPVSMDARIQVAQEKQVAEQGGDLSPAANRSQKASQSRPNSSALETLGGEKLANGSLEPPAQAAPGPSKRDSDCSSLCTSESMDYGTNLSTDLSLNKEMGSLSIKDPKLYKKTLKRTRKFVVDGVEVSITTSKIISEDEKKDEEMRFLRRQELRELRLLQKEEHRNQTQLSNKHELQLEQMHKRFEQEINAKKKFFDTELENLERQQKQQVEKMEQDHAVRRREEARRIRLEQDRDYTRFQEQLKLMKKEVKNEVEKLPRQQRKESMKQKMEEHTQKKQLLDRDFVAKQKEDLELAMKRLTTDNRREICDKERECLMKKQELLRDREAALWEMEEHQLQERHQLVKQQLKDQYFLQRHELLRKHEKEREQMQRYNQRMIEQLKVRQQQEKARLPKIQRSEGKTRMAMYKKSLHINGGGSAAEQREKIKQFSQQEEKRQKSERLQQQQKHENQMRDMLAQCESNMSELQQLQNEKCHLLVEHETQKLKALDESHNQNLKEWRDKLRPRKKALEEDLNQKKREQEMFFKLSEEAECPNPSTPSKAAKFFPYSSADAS
- measurement description: pIC50, kinobeads binding competition
- condition info: cell material: Lysate mix
result type: pIC50

> print(dat)
                                   molecule  test.value
1  O=C(NCCNC(=O)c1cc(Nc2cc(C3CC3)[nH]n2)nc(N2CCN(Cc3ccc(S(=O)(=O)F)cc3)CC2)n1)OC1CC/C=C/CCC1 (stereo unspecified)      < 4.52
2  C#CCNC(=O)c1cc(Nc2cc(C)[nH]n2)nc(N2CCN(Cc3ccc(S(=O)(=O)F)cc3)CC2)n1      < 4.52
3  CCNC(=O)c1cc(Nc2cc(C3CC3)[nH]n2)nc(N2CCN(Cc3ccc(S(=O)(=O)F)cc3)CC2)n1      < 4.52
4  Cc1cc(Nc2cc(C(=O)NCCNC(=O)OC3CC/C=C/CCC3)nc(N3CCN(Cc4ccc(S(=O)(=O)F)cc4)CC3)n2)n[nH]1 (stereo unspecified)      < 4.52
5  C#CCNC(=O)c1cc(Nc2cc(C3CC3)[nH]n2)nc(N2CCN(Cc3ccc(S(=O)(=O)F)cc3)CC2)n1      < 4.52
6  CCNC(=O)c1cc(Nc2cc(C)[nH]n2)nc(N2CCN(Cc3ccc(S(=O)(=O)F)cc3)CC2)n1      < 4.52

====

- measured on: DAPK1 (UniProt P53355)
- Sequence (P53355 whole entry, looked up): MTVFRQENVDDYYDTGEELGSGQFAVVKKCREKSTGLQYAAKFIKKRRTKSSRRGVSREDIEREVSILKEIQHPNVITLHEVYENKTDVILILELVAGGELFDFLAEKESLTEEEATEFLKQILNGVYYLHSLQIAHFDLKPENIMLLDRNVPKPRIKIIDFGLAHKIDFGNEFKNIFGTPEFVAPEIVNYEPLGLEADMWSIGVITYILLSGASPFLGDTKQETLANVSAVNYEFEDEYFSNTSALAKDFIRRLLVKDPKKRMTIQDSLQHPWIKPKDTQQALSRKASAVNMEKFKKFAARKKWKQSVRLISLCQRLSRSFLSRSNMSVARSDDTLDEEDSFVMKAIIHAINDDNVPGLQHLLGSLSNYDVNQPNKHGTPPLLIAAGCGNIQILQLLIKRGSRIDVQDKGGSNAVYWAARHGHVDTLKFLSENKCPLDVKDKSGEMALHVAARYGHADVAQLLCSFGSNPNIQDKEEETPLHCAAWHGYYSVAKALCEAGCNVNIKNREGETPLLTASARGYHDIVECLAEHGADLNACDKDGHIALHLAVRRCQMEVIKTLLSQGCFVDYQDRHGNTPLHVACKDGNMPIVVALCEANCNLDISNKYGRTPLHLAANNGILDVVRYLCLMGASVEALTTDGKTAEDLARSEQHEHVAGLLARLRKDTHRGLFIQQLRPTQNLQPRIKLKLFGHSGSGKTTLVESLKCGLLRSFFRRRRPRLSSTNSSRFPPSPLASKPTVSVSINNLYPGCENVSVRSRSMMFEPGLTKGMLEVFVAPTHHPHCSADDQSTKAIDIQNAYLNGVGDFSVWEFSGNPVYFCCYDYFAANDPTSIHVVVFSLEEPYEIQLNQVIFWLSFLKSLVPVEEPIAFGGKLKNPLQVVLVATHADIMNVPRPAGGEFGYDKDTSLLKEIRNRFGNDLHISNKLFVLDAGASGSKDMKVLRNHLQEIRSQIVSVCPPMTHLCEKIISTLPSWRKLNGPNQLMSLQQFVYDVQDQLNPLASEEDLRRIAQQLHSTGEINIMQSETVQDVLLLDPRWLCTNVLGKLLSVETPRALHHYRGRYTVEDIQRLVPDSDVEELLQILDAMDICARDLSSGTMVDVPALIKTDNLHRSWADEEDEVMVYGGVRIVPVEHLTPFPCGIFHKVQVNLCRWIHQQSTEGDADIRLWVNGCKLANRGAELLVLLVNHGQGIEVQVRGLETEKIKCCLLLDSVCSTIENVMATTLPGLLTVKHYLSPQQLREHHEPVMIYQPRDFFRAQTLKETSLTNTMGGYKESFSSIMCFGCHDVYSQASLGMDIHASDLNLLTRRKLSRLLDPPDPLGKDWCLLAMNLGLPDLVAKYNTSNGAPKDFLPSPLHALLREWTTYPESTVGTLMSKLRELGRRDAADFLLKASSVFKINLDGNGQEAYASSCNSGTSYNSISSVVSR
- measurement description: pIC50, kinobeads binding competition
- condition info: cell material: Lysate mix
result type: pIC50

> print(dat)
                                   compound             measured.on  test.value
1  O=C(NCCNC(=O)c1cc(Nc2cc(C3CC3)[nH]n2)nc(N2CCN(Cc3ccc(S(=O)(=O)F)cc3)CC2)n1)OC1CC/C=C/CCC1 (stereo not given)  DAPK1 (UniProt P53355)      < 4.52
2  Cc1cc(Nc2cc(C(=O)NCCNC(=O)OC3CC/C=C/CCC3)nc(N3CCN(Cc4ccc(S(=O)(=O)F)cc4)CC3)n2)n[nH]1 (stereo not given)  DAPK1 (UniProt P53355)      < 4.52
3  CCNC(=O)c1cc(Nc2cc(C3CC3)[nH]n2)nc(N2CCN(Cc3ccc(S(=O)(=O)F)cc3)CC2)n1  DAPK1 (UniProt P53355)         4.6
4  C#CCNC(=O)c1cc(Nc2cc(C)[nH]n2)nc(N2CCN(Cc3ccc(S(=O)(=O)F)cc3)CC2)n1  DAPK1 (UniProt P53355)      < 4.52
5  C#CCNC(=O)c1cc(Nc2cc(C3CC3)[nH]n2)nc(N2CCN(Cc3ccc(S(=O)(=O)F)cc3)CC2)n1  DAPK1 (UniProt P53355)      < 4.52

====

- measured on: EIF2AK3 (UniProt Q9NZJ5)
- Sequence (Q9NZJ5 whole entry): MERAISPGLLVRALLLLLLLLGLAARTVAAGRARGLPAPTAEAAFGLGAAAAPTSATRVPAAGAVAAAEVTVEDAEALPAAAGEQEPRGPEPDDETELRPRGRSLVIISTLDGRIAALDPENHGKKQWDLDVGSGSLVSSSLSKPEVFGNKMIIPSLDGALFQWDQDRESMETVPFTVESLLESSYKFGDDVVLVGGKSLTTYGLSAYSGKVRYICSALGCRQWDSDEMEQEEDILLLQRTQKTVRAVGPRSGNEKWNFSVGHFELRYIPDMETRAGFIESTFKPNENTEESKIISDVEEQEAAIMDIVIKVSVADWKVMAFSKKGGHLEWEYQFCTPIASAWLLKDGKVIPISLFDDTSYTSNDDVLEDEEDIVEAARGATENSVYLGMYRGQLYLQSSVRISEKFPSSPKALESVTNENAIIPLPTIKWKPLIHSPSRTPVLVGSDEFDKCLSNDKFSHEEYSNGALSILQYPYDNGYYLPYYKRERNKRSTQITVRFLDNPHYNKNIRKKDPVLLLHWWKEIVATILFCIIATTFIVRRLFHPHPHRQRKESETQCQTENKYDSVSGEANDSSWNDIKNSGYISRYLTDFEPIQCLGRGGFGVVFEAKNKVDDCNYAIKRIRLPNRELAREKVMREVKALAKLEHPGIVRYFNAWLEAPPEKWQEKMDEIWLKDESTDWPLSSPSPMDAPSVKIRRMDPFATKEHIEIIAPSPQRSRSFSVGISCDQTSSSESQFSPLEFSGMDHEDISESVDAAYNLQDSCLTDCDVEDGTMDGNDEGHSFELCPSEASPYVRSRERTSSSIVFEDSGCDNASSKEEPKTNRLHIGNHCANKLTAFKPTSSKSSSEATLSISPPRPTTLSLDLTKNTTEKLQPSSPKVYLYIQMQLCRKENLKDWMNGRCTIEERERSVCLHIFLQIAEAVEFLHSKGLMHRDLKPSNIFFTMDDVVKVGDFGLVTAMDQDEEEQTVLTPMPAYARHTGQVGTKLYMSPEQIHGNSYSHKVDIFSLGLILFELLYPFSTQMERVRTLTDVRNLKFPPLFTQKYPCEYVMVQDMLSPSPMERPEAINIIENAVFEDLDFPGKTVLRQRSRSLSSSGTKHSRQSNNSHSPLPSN
- measurement description: pIC50, kinobeads binding competition
- condition info: cell material: Lysate mix
result type: pIC50

> print(dat)
                                   molecule  test.value
1  C#CCNC(=O)c1cc(Nc2cc(C3CC3)[nH]n2)nc(N2CCN(Cc3ccc(S(=O)(=O)F)cc3)CC2)n1      < 4.52
2  CCNC(=O)c1cc(Nc2cc(C3CC3)[nH]n2)nc(N2CCN(Cc3ccc(S(=O)(=O)F)cc3)CC2)n1      < 4.52
3  Cc1cc(Nc2cc(C(=O)NCCNC(=O)OC3CC/C=C/CCC3)nc(N3CCN(Cc4ccc(S(=O)(=O)F)cc4)CC3)n2)n[nH]1 (stereo unspecified)      < 4.52
4  CCNC(=O)c1cc(Nc2cc(C)[nH]n2)nc(N2CCN(Cc3ccc(S(=O)(=O)F)cc3)CC2)n1      < 4.52
5  C#CCNC(=O)c1cc(Nc2cc(C)[nH]n2)nc(N2CCN(Cc3ccc(S(=O)(=O)F)cc3)CC2)n1      < 4.52
6  O=C(NCCNC(=O)c1cc(Nc2cc(C3CC3)[nH]n2)nc(N2CCN(Cc3ccc(S(=O)(=O)F)cc3)CC2)n1)OC1CC/C=C/CCC1 (stereo unspecified)      < 4.52
